Give measured Growth Rate for each item. Keep answers brief.
Test system: HEK-293T
EXPERIMENTAL PROTOCOL: Incucyte cell viability with HEK293T; further: filed as whole numbers so only -1 and 0 and 1 occur
Assay type: toxicity, cell-based
CONDITION PARAMETERS: human, 6 h, 10 µM, compound concentration 10 uM, replicate number 1, timepoint 6 hours
Answers are plain numbers.

[[record]]
smiles_code = "Cl.Cl.Nc1ncnc2c1c(-c1cccc(OCc3ccccc3)c1)cn2[C@H]1C[C@@H](CN2CCC2)C1"
measurement_type = "Growth Rate"
reported = 0

[[record]]
smiles_code = "N#Cc1c(N)nc(SCC(N)=O)c(C#N)c1-c1ccc(OCC2CC2)cc1"
measurement_type = "Growth Rate"
reported = 1

[[record]]
smiles_code = "C1=N/C2=N/c3ccc(OCCN4CCCC4)c(c3)COC/C=C\\COCc3cccc(c3)C(=C1)N2"
measurement_type = "Growth Rate"
reported = 0

[[record]]
smiles_code = "CCCCN(CCCC)C(=O)CN1C[C@@H](c2ccc3c(c2)OCO3)[C@H](C(=O)O)[C@H]1c1ccc(OC)cc1"
measurement_type = "Growth Rate"
reported = 1

[[record]]
smiles_code = "O=C(O)COc1cccc(CN(Cc2ccc(-n3cccn3)cc2)S(=O)(=O)c2cccnc2)c1"
measurement_type = "Growth Rate"
reported = 1


Return reported Growth Rate values for all items listed beneath this line.
1. CCc1cc2c(cc1CC)CC(NC[C@H](O)c1ccc(O)c3[nH]c(=O)ccc13)C2
2. CCC(=O)N[C@H]1CC[C@@H](C(=O)N(C)c2ccc(-c3nc4ccccc4o3)cc2)C1

1: 0; 2: 0

Return reported Growth Rate values for all items listed beneath this line.
1. C[C@@H]1CCc2ncc(F)cc2[C@H]2CCCN2c2ccn3ncc(c3n2)C(=O)N1
2. Cc1cc(C)c(N)c(C#Cc2cccc(F)c2)n1.Cl

1: 0; 2: 0

---

Test system: Fibroblast
EXPERIMENTAL PROTOCOL: Multiplex assay against human fibroblast
Type: toxicity, cell-based
CONDITION PARAMETERS: 24 h, 1 µM, compound concentration 1 uM, replicate 2
Give measured Population Pyknosed Nuclei (%) for each item. Keep answers brief.
One number for each entry, in %.

Study these solved cases before continuing.
[[record]]
molecule = "CC(C)(C)c1cnc(CSc2cnc(NC(=O)C3CCNCC3)s2)o1 [BMS-387032]"
measurement_type = "Population Pyknosed Nuclei (%)"
reported = 15

[[record]]
molecule = "Cc1cn(-c2cc(NC(=O)c3ccc4c(c3)CN(c3cncnc3)C[C@@H]4C)cc(C(F)(F)F)c2)cn1"
measurement_type = "Population Pyknosed Nuclei (%)"
reported = 11

[[record]]
molecule = "CCOc1cc2ncc(C#N)c(Nc3ccc(OCc4cccc(F)c4)c(Cl)c3)c2cc1NC(=O)/C=C/CN(C)C [HKI-357]"
measurement_type = "Population Pyknosed Nuclei (%)"
reported = 7

[[record]]
molecule = "COc1cc2c(Nc3ccc(NC(=O)c4ccccc4)cc3)ncnc2cc1OCCCN1CCOCC1"
measurement_type = "Population Pyknosed Nuclei (%)"
reported = 24

[[record]]
molecule = "CCC(=O)O[C@]1(C(=O)SCF)[C@H](C)C[C@H]2[C@@H]3C[C@H](F)C4=CC(=O)C=C[C@]4(C)[C@@]3(F)[C@@H](O)C[C@@]21C [FLUTICASONE PROPIONATE]"
measurement_type = "Population Pyknosed Nuclei (%)"
reported = 11


Return reported Population Pyknosed Nuclei (%) values for all items listed beneath this line.
1. COc1cc2c(NC3CCN(C(C)C)CC3)nc(N3CCC(F)(F)CC3)nc2cc1OCCCN1CCCC1
2. Nc1nc2c(c(N3CCNCC3)n1)CCC1=C2[C@@H]2CCCC[C@@H]2O1
3. N#Cc1cnc(Nc2cc(NC[C@H]3CNCCO3)c(C(F)(F)F)cn2)cn1 [SRA-737]

1. 16
2. 20
3. 14

---

Test system: HEK-293T
EXPERIMENTAL PROTOCOL: Multiplex assay against HEK293T
Assay type: toxicity, cell-based
CONDITION PARAMETERS: human, 12 h, 1 µM, compound concentration 1 uM, replicate 1
MEASUREMENT TYPE: Population Normal (%)
Answers are plain numbers, in %.

Return reported Population Normal (%) values for all items listed beneath this line.
1. CCC(=O)O[C@]1(C(=O)SCF)[C@H](C)C[C@H]2[C@@H]3C[C@H](F)C4=CC(=O)C=C[C@]4(C)[C@@]3(F)[C@@H](O)C[C@@]21C [FLUTICASONE PROPIONATE]
2. COc1cc2c(NC3CCN(C(C)C)CC3)nc(N3CCC(F)(F)CC3)nc2cc1OCCCN1CCCC1
3. CCn1c(-c2nonc2N)nc2cnc(Oc3cccc(NC(=O)c4ccc(OCCN5CCOCC5)cc4)c3)cc21 [GSK-269962A]
4. O=C(O)c1ccc2cc(-c3ccc(O)c(C45CC6CC(CC(C6)C4)C5)c3)ccc2c1
5. CNc1oc(-c2cccc3ccccc23)nc1C#N

1. 88
2. 80
3. 82
4. 94
5. 69

---

Tested on: U2OS
EXPERIMENTAL PROTOCOL: Multiplex assay against U2OS
Type: toxicity, cell-based
CONDITION PARAMETERS: human, 48 h, 1 µM, compound concentration 1 uM, replicate 1
Label rule, in plain words: Total Cell Count of 200 and up is fulfilled, under 200 is not fulfilled.

The examples below pair each entry with its known result.
[[record]]
molecule = "CC(=O)c1cc(-c2cc(C(=O)NC3CC3)ccc2C)c2ncccn12"
class_assignment = "not fulfilled"

[[record]]
molecule = "COc1ccc(NS(=O)(=O)c2sc3ccc(Cl)cc3c2C)cc1N1CCNCC1.Cl"
class_assignment = "not fulfilled"

[[record]]
molecule = "CCCn1c(=O)c2[nH]c(C34CC5CC(CC3C5)C4)nc2n(CCC)c1=O"
class_assignment = "not fulfilled"

[[record]]
molecule = "Cc1cc2c(cc1N1C(=O)c3cccc4c(CCCO)ccc(c34)C1=O)n(C)c(=O)n2C"
class_assignment = "not fulfilled"


Confirm if Total Cell Count reported for the molecule CCC(=O)O[C@]1(C(=O)SCF)[C@H](C)C[C@H]2[C@@H]3C[C@H](F)C4=CC(=O)C=C[C@]4(C)[C@@]3(F)[C@@H](O)C[C@@]21C [FLUTICASONE PROPIONATE] is 200 or above.
fulfilled

---

Give measured Population Hoechst High Intensity Objects (%) for each item. Keep answers brief.
Test system: U2OS
EXPERIMENTAL PROTOCOL: Multiplex assay against U2OS
Assay type: toxicity, cell-based
CONDITION PARAMETERS: human, 12 h, 10 µM, compound concentration 10 uM, replicate 2
Output should be the measured figure followed by the unit it is expressed in.

Study these solved cases before continuing.
[[record]]
molecule = "O=C(O)c1ccc2cc(-c3ccc(O)c(C45CC6CC(CC(C6)C4)C5)c3)ccc2c1"
reported = "2%"

[[record]]
molecule = "Nc1ccc(C(=O)Nc2cccc(-c3nc(N4CCOCC4)c4oc5ncccc5c4n3)c2)cn1"
reported = "19%"

[[record]]
molecule = "CNc1oc(-c2cccc3ccccc23)nc1C#N"
reported = "46%"

[[record]]
molecule = "Cc1nc(Cc2cccc(C(F)(F)F)c2)sc1-c1ccc(C(N)=O)nc1 [TP-024n]"
reported = "4%"

[[record]]
molecule = "CC(=O)c1cc(-c2cc(C(=O)NC3CC3)ccc2C)c2ncccn12"
reported = "4%"

[[record]]
molecule = "CCc1cc2c(cc1CC)CC(NC[C@H](O)c1ccc(O)c3[nH]c(=O)ccc13)C2"
reported = "6%"


Return reported Population Hoechst High Intensity Objects (%) values for all items listed beneath this line.
1. c1ccc2oc(-c3csc(C4CCN(Cc5nc6ncccc6[nH]5)CC4)n3)cc2c1
2. Cc1cn(-c2cc(NC(=O)c3ccc4c(c3)CN(c3cncnc3)C[C@@H]4C)cc(C(F)(F)F)c2)cn1

1. 15%
2. 15%

Return reported Population Hoechst High Intensity Objects (%) values for all items listed beneath this line.
1. CCOc1cc(N2CCC(O)CC2)ccc1Nc1ncc2c(n1)N(C1CCCC1)CCC(=O)N2C
2. CCCn1c(=O)c2[nH]c(C34CC5CC(CC3C5)C4)nc2n(CCC)c1=O
3. CCC(=O)O[C@]1(C(=O)SCF)[C@H](C)C[C@H]2[C@@H]3C[C@H](F)C4=CC(=O)C=C[C@]4(C)[C@@]3(F)[C@@H](O)C[C@@]21C [FLUTICASONE PROPIONATE]
4. COc1ccc(NS(=O)(=O)c2sc3ccc(Cl)cc3c2C)cc1N1CCNCC1.Cl
5. CC(C)N1CCC(C)(C)c2cc(C#Cc3ccc(C(=O)O)cc3)ccc21
6. CCOc1cc2ncc(C#N)c(Nc3ccc(OCc4cccc(F)c4)c(Cl)c3)c2cc1NC(=O)/C=C/CN(C)C

1. 8%
2. 3%
3. 8%
4. 4%
5. 71%
6. 12%

Return reported Population Hoechst High Intensity Objects (%) values for all items listed beneath this line.
1. Nc1nc2c(c(N3CCNCC3)n1)CCC1=C2[C@@H]2CCCC[C@@H]2O1
2. Cc1cc2c(cc1N1C(=O)c3cccc4c(CCCO)ccc(c34)C1=O)n(C)c(=O)n2C
3. CC(C)Oc1ccc(C(=O)N[C@H](CNC(=O)CN(C)C)Cc2ccc(-c3cn4cccc([C@H](C)O)c4n3)cc2)cc1Cl [GSK-923295A]
4. CCn1c(-c2nonc2N)nc2cnc(Oc3cccc(NC(=O)c4ccc(OCCN5CCOCC5)cc4)c3)cc21 [GSK-269962A]

["3%", "9%", "2%", "7%"]
